src = patent US9284303B2

TARGET SYSTEM: human CB2 (hCB2) receptor (Homo sapiens, UniProt P34972)
Construct: expressed in transfected cells; host or cells: CHO-K1
Sequence (P34972 whole entry): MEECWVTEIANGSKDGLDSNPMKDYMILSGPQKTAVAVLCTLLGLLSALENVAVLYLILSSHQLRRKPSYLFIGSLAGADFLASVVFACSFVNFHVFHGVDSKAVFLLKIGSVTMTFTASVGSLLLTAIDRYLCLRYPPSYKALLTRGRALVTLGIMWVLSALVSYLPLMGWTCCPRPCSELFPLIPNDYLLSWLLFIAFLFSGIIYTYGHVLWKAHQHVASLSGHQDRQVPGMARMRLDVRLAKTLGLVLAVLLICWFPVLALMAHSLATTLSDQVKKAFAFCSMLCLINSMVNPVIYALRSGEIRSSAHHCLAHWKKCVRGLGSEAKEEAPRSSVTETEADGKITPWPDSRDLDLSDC
PROTOCOL: Inhibition of forskolin-activated cAMP production upon activation of hCB2 (HTRF), CHO-K1 cells
Type: cell-based
MEASUREMENT PARAMETERS: hCB2-CHO-K1 cells, forskolin-activated cAMP, pEC50=-log(EC50); read-out: CB2 pEC50 (converted)
Listed here: items and their measured EC50.

[
  {
    "MOLECULAR STRING": "CC(C)(C)c1nc2cc(S(=O)(=O)c3ccc(S(N)(=O)=O)s3)ccc2n1CC1CCOCC1",
    "EC50 [nM]": 1.7
  },
  {
    "MOLECULAR STRING": "CC(C)(C)c1nc2cc(S(=O)(=O)c3ccnc(Cl)c3)ccc2n1CC1CCOCC1",
    "EC50 [nM]": 0.676
  },
  {
    "MOLECULAR STRING": "CC(C)(C)c1nc2cc(S(=O)(=O)c3c(Cl)cncc3Cl)ccc2n1CC1CCOCC1",
    "EC50 [nM]": 1.26
  },
  {
    "MOLECULAR STRING": "CCC(C)(C)c1nc2cc(S(=O)(=O)c3ccc(OC)nn3)ccc2n1CC1CCC1",
    "EC50 [nM]": 0.794
  }
]

====

Listed here: items and their measured EC50.
TARGET SYSTEM: human CB1 (hCB1) receptor (Homo sapiens)
Construct: expressed in transfected cells; host or cells: CHO-K1
Sequence (P21554 whole entry): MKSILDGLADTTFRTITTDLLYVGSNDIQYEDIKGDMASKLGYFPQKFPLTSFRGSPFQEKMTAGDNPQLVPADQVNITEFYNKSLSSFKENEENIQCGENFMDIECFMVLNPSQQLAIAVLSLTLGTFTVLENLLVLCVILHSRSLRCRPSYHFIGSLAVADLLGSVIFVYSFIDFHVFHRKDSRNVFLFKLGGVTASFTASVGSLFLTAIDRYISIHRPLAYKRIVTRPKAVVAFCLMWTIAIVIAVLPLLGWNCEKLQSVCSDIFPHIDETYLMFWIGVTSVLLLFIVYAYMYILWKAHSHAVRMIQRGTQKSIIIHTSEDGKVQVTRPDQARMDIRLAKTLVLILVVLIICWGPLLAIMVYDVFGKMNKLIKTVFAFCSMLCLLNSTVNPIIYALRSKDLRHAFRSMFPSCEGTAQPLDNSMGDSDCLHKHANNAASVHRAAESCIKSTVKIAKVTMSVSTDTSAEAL
PROTOCOL: Inhibition of forskolin-activated cAMP production upon activation of hCB1 (HTRF), CHO-K1 cells
Format: cell-based
MEASUREMENT PARAMETERS: CB1 pEC50, hCB1-CHO-K1 cells, forskolin-activated cAMP, pEC50=-log(EC50)

[
  {
    "COMPOUND": "CCCC(C)Cn1c(C(C)(C)C)nc2cc(S(=O)(=O)c3ccnc(F)c3)ccc21 (stereo not shown)",
    "INEQUALITY OPERATOR": ">",
    "EC50 (nM)": 10000
  },
  {
    "COMPOUND": "COc1ccc(S(=O)(=O)c2ccc3c(c2)nc(C(C)(C)C)n3CC2CCOCC2)cn1 [Co. No. 52]",
    "INEQUALITY OPERATOR": "=",
    "EC50 (nM)": 229
  },
  {
    "COMPOUND": "CC(C)(C)c1nc2cc(S(=O)(=O)c3ccc(C(=O)N4CCOCC4)o3)ccc2n1CC1CCOCC1",
    "INEQUALITY OPERATOR": "=",
    "EC50 (nM)": 10500
  },
  {
    "COMPOUND": "CC(C)(C)c1nc2cc(S(=O)(=O)c3ccc(S(C)(=O)=O)nc3)ccc2n1CC1CCOCC1",
    "INEQUALITY OPERATOR": ">",
    "EC50 (nM)": 10000
  },
  {
    "COMPOUND": "CC(C)(C)c1nc2cc([S+]([O-])c3ccc(Cl)nn3)ccc2n1CC1CCOCC1 (stereo not shown)",
    "INEQUALITY OPERATOR": "=",
    "EC50 (nM)": 427
  },
  {
    "COMPOUND": "CC(C)(C)c1nc2cc(S(=O)(=O)c3cccc(C#N)n3)ccc2n1CC1CCOCC1",
    "INEQUALITY OPERATOR": "=",
    "EC50 (nM)": 741
  },
  {
    "COMPOUND": "CC(=O)NCCNc1cc(S(=O)(=O)c2ccc3c(c2)nc(C(C)(C)C)n3CC2CCOCC2)ccn1",
    "INEQUALITY OPERATOR": ">",
    "EC50 (nM)": 10000
  },
  {
    "COMPOUND": "CC(C)(C)c1nc2cc(S(=O)(=O)c3ccnc(C#N)c3)ccc2n1CC1CCOCC1 [Co. No. 93]",
    "INEQUALITY OPERATOR": ">",
    "EC50 (nM)": 10000
  },
  {
    "COMPOUND": "CC(C)(C)c1nc2cc(S(=O)(=O)c3ccc(S(C)(=O)=O)nc3)ccc2n1CC1CCCCC1",
    "INEQUALITY OPERATOR": ">",
    "EC50 (nM)": 10000
  },
  {
    "COMPOUND": "CC(C)(C)c1nc2cc(S(=O)(=O)c3sc(S(C)(=O)=O)cc3Br)ccc2n1CC1CCOCC1 [Co. No. 63]",
    "INEQUALITY OPERATOR": "=",
    "EC50 (nM)": 2820
  },
  {
    "COMPOUND": "CC(=O)Nc1cc(S(=O)(=O)c2ccc3c(c2)nc(C(C)(C)C)n3CC2CCOCC2)ccn1",
    "INEQUALITY OPERATOR": "=",
    "EC50 (nM)": 2000
  },
  {
    "COMPOUND": "CCOc1cc(S(=O)(=O)c2ccc3c(c2)nc(C(C)(C)C)n3CC2CCOCC2)ccn1",
    "INEQUALITY OPERATOR": "=",
    "EC50 (nM)": 1410
  },
  {
    "COMPOUND": "CC(C)(C)c1nc2cc(S(=O)(=O)c3cc(C(F)(F)F)ccn3)ccc2n1CC1CCOCC1",
    "INEQUALITY OPERATOR": "=",
    "EC50 (nM)": 479
  },
  {
    "COMPOUND": "CC(C)(C)c1nc2cc(S(=O)(=O)c3ccc(S(C)(=O)=O)s3)ccc2n1CC1CCOCC1 [Co. No. 57]",
    "INEQUALITY OPERATOR": "=",
    "EC50 (nM)": 1450
  },
  {
    "COMPOUND": "CC(C)(C)c1nc2cc(S(=O)(=O)c3cc(O)ncc3F)ccc2n1CC1CCOCC1",
    "INEQUALITY OPERATOR": "=",
    "EC50 (nM)": 1580
  },
  {
    "COMPOUND": "CC(C)(C)c1nc2cc(S(=O)(=O)c3ccn(CC(F)(F)F)c(=O)c3)ccc2n1CC1CCOCC1",
    "INEQUALITY OPERATOR": "=",
    "EC50 (nM)": 3890
  }
]
